- study.target: Aurora kinase A (Homo sapiens)
- measurement.context: Compound concentration 20.0 uM
- Description: Thermal Shift Assay. Domain: start/stop: E122-S403
Use -2 °C as the dividing line for ΔTm, with the line itself on the satisfied side and lower values as not satisfied.

Problem: Dear colleague, could you confirm whether O=C(O)C1CCCN(CCC=C(c2ccccc2)c2ccccc2)C1 (stereo not drawn) has ΔTm at or above -2 °C?
Result: not satisfied

Problem: Dear colleague, could you confirm whether COc1cc(Oc2ccnc3cc(OC)c(OC)cc23)ccc1NC(=O)NC(C)c1nccs1 (stereo not drawn) has ΔTm at or above -2 °C?
Result: satisfied

Problem: Dear colleague, could you confirm whether CS(=O)(=O)c1ccc(Oc2cc(F)cc(C#N)c2)c2c1[C@H](O)C(F)(F)C2 has ΔTm at or above -2 °C?
Result: satisfied

Problem: Dear colleague, could you confirm whether C=C(C)[C@@H](CC=C(C)C)C[C@@]12C[C@@H](CC=C(C)C)C(C)(C)[C@@](CC=C(C)C)(C(=O)C(C(=O)c3ccc(O)c(O)c3)=C1O)C2=O has ΔTm at or above -2 °C?
Result: satisfied

Problem: Dear colleague, could you confirm whether O=C(CNC(=O)[C@H](COP(=O)(O)O)NC(=O)CCc1c[nH]c2ccccc12)NCCCCc1ccccc1 has ΔTm at or above -2 °C?
Result: satisfied

* * *

Reported ΔTm is given for each of the following molecules.
- study.target: Cyclin-dependent kinase 2 (Homo sapiens) (UniProt P24941)
- measurement.context: Compound concentration 20.0 uM
- Description: Thermal Shift Assay. Domain: start/stop: M1-L298
Please answer in the form of a number followed by its unit of measurement.

CC#CCn1c(N2CCC[C@@H](N)C2)nc2c1c(=O)n(Cc1nc(C)c3ccccc3n1)c(=O)n2C : -0.01 °C

Problem: Report ΔTm for O=C(O)CCNc1cc(N2CCc3ccccc3CC2)nc(-c2cccnc2)n1 please.
Result: 0.04 °C

Problem: Report ΔTm for N[C@](CCCCB(O)O)(CCN1CCCCC1)C(=O)O please.
Result: 1.3 °C

* * *

Reported ΔTm is given for each of the following molecules.
- study.target: Glycogen synthase kinase-3 beta (Homo sapiens) (UniProt P49841)
- Sequence (P49841 whole entry, looked up): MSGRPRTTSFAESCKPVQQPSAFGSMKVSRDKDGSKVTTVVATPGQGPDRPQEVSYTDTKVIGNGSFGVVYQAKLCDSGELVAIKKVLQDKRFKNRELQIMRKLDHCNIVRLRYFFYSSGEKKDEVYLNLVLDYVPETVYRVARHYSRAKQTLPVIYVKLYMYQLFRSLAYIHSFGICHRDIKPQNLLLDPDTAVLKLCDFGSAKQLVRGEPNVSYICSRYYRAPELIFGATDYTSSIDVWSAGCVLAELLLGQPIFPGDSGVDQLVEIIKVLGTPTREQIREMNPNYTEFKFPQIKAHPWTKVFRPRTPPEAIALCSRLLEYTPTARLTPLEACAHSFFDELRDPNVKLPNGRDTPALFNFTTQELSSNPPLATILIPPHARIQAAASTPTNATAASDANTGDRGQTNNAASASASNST
- measurement.context: Compound concentration 20.0 uM
- Description: Thermal Shift Assay. Domain: start/stop: M26-R383
Please state the figure in °C; there is no need to write the unit.

CN(C)Cc1ccc(-c2nc3cccc4c3n2CCNC4=O)cc1 : 1.99
COc1cccc(Nc2c(C(N)=O)cnc3c(C)cc(S(=O)(=O)c4cccc(C(=O)N(C)C)c4)cc23)c1 : 0.04
O=C(Nc1cc(C(F)F)ns1)Nc1cc(F)ncc1CO : 1.08
CN(C)CCCN(CC[C@H](N)C(=O)O)C[C@H]1O[C@@H](n2cnc3c(N)ncnc32)[C@H](O)[C@@H]1O : -1.16
Cc1ccnc(NS(=O)(=O)c2ccc(NC(=O)Nc3ccc(S(=O)(=O)Nc4nccc(C)n4)cc3)cc2)n1 : -1.11
COc1cc(-c2cn(C)c(=O)c3cnccc23)cc(OC)c1CN(C)CC(=O)NCCOCCOCCNc1cccc2c1C(=O)N(C1CCC(=O)NC1=O)C2=O (centres undefined) : 0.14
CC(C)c1ccc(-c2cc(=O)c3ccccc3o2)cc1 : 0
O=C(NO)c1cccc(C(=O)NCCc2ccccc2)c1 : -1.53

Problem: Query ΔTm on Glycogen synthase kinase-3 beta (Homo sapiens) (UniProt P49841) for N[C@@H](CCNCc1ccc(Cl)cc1)C(=O)N1CCCCC1
Result: -0.21

* * *

- study.target: Glycogen synthase kinase-3 beta (Homo sapiens) (UniProt P49841)
- measurement.context: Compound concentration 20.0 uM
measured.quantity: ΔTm (°C)
Please state the figure in °C; there is no need to write the unit.

Observe how each entry below is paired with its result.
Cc1nc(N)c2nnn(C[C@H]3CN(Cc4nccs4)CCO3)c2n1 : -0.34
CCCC[C@]1(CC)CS(=O)(=O)c2cc(CNC(CC(=O)O)CC(=O)O)c(OC)cc2[C@@H](c2ccccc2)N1 : -0.88
COc1cc(Oc2ccnc3cc(OC)c(OC)cc23)ccc1NC(=O)NC(C)c1nccs1 (centres undefined) : -1.46
O=C(c1cc(O)c(O)c([N+](=O)[O-])c1)c1ccccc1F : 0.05
Nc1nc(NC2CC2)cc(-c2cccc(Cl)c2Cl)n1 : 0.36
CCCSc1nc2c(c(=O)n1-c1ccccc1)SCC2 : -0.82
COC(=O)c1ccc(CN2CCC(O)(Cn3cnc4c(-c5ccc(CN)cc5)n(C)nc4c3=O)CC2)c(Cl)c1 : -0.1
O=C(Nc1ccc2[nH]nc(-c3ccncc3)c2c1)[C@@H]1CCN(CC(=O)N2CCN(c3ccc(-c4ncccn4)cc3)CC2)C1 : 1.44

Now look at this entry.
Problem: Report ΔTm for CCN(CC)S(=O)(=O)c1cc(Nc2nccc(-c3ccnc(-c4ccc(NC(=O)NC)cc4)c3)n2)ccc1Cl please.
Result: 24.1

* * *

Reported ΔTm is given for each of the following compounds.
- study.target: Bromodomain-containing protein 4 (Homo sapiens)
- measurement.context: Compound concentration 20.0 uM
Please state the figure in °C; there is no need to write the unit.

Problem: Query ΔTm on Bromodomain-containing protein 4 (Homo sapiens) for CCC(NC(=O)C(CC(C)C)NC(=O)OCc1ccccc1)C(=O)C(=O)NCCCN1CCOCC1 (configuration not stated)
Result: -2.44

Problem: Query ΔTm on Bromodomain-containing protein 4 (Homo sapiens) for CC(C)(F)C[C@H](N[C@@H](c1ccc(-c2ccc(S(C)(=O)=O)cc2)cc1)C(F)(F)F)C(=O)NC1(C#N)CC1
Result: -2.13

Problem: Query ΔTm on Bromodomain-containing protein 4 (Homo sapiens) for CCCN1CCN(c2ccc(C(=O)NC3(C(=O)NCC#N)CCCCC3)cc2)CC1
Result: -1.33

* * *

- study.target: Mitogen-activated protein kinase 1 (Homo sapiens)
- measurement.context: Compound concentration 20.0 uM
- Description: Thermal Shift Assay. Domain: start/stop: M1-S360
Use 0.2 °C as the dividing line for ΔTm, with the line itself on the met side and lower values as not met.

Problem: Dear colleague, could you confirm whether Cc1c(F)c(N)cc(C(=O)Nc2cc(-n3cc(C(=O)NCCCN4CCOCC4)nn3)ccc2N2CCN(C)CC2)c1Cl has ΔTm at or above 0.2 °C?
Result: not met

Problem: Dear colleague, could you confirm whether CNCCC(Oc1ccccc1OC)c1ccccc1 (configuration not stated) has ΔTm at or above 0.2 °C?
Result: not met

Problem: Dear colleague, could you confirm whether Cc1[nH]nc(C(F)(F)F)c1Cc1sc2c(c1C(=O)N1C[C@](C)(O)CO1)c(=O)n(C)c(=O)n2C(C)C has ΔTm at or above 0.2 °C?
Result: met

Problem: Dear colleague, could you confirm whether COc1cc(C(C)C)c2c(c1)S(=O)(=O)N(COc1cc(=O)n3cccc(OCCN4CCCCC4)c3n1)C2=O has ΔTm at or above 0.2 °C?
Result: not met

Problem: Dear colleague, could you confirm whether O=c1[nH]c(Oc2cnn(Cc3ccccc3)c2)nc2cnccc12 has ΔTm at or above 0.2 °C?
Result: met

Problem: Dear colleague, could you confirm whether CC(=O)N[C@@H](CCCCNC(=O)CSCCNC(=O)CCNC(=O)[C@H](O)C(C)(C)COP(=O)(O)OP(=O)(O)OC[C@H]1O[C@@H](n2cnc3c(N)ncnc32)[C@H](O)[C@@H]1OP(=O)(O)O)C(N)=O has ΔTm at or above 0.2 °C?
Result: not met

Problem: Dear colleague, could you confirm whether O=C(NCC(=O)N1CCCCC1)Nc1ccc2nnsc2c1 has ΔTm at or above 0.2 °C?
Result: not met

Problem: Dear colleague, could you confirm whether CC(=O)OCCN1C(=O)c2c(C)nc3ccc(S(=O)(=O)N4CCOCC4)cc3c2C1=O has ΔTm at or above 0.2 °C?
Result: not met

Problem: Dear colleague, could you confirm whether CC(C)[C@@H]1NC(=O)[C@H](Cc2ccc(O)cc2)NC(=O)[C@@H](CC(=O)O)NC(=O)S[C@@H](C(=O)O)NC(=O)[C@H]([C@H](C)O)NC(=O)[C@H](Cc2ccc(O)cc2)NC(=O)[C@H](Cc2c[nH]c3ccccc23)NC(=O)[C@H](CCCNC(=N)N)NC(=O)[C@H](Cc2c[nH]c3ccccc23)NC(=O)[C@H](C)NC(=O)[C@H](CO)NC(=O)[C@H](CCCNC(=N)N)NC(=O)[C@H]([C@H](C)O)NC(=O)[C@H](CC(N)=O)NC(=O)[C@H](Cc2ccc(O)cc2)NC1=O has ΔTm at or above 0.2 °C?
Result: not met

* * *

- study.target: Glycogen synthase kinase-3 beta (Homo sapiens) (UniProt P49841)
- measurement.context: Compound concentration 20.0 uM
measured.quantity: ΔTm (°C)
Please state the figure in °C; there is no need to write the unit.

Observe how each entry below is paired with its result.
O=C(NC[C@H](O)CN1CCc2ccccc2C1)c1cc(NC2COC2)ncn1 : -0.25
O=C(c1cccc(-c2ccc(-c3cn(C(=O)N4CCCCC4c4ccccc4)nn3)cc2)c1)N1CCCCC1 (stereo not given) : -2.22
N=C(N)N/N=C/c1cccc(Cl)c1Cl : -0.98

Problem: Query ΔTm on Glycogen synthase kinase-3 beta (Homo sapiens) (UniProt P49841) for Nc1cc(F)ccc1NC(=O)c1ccc(CNC(=O)/C=C/c2cccnc2)cc1
Result: -1.09

Problem: Query ΔTm on Glycogen synthase kinase-3 beta (Homo sapiens) (UniProt P49841) for O=C(CCCCCCNC(=O)c1cnc(N(c2ccccc2)c2ccccc2)nc1)NO
Result: -0.11
